Source of measurements: PubChem BioAssay (NCATS)

ASSAY OVERVIEW: qHTS assay for measurement of the activity of small molecule inhibitors on Zika virus induced Caspase-3 activity in human iPSC derived neural progenitor cells (hNPCs) (AID 1224857); note: nearly all actives have a fitted effect of over 65% in size
SETUP CONDITIONS: hNPCs ZIKV-induced caspase-3/7, Caspase-Glo luminescence, 6 h; series mostly up to 45.7 µM
Records with an inconclusive call do not appear. Activity calls are given as the source filed them. Calls come from the whole dose curve; as a rule, active = well fitted inhibition curve with a large enough effect; inconclusive = small, poorly fitted or top-dose-only effect; inactive = no such curve, though single readings can be large or run the other way.
Outcomes: yes = active, no = inactive

MOLECULE | CLASS ASSIGNMENT
Cc1ncc(CNC(=O)N(CCCl)N=O)c(N)n1 | no
CCn1cc(C(=O)O)c(=O)c2ccc(C)nc21 | no
CC[N+]1(C)CCCC(OC(=O)C(O)(c2ccccc2)c2ccccc2)C1 (stereo not given) | no
CC(=O)[C@H]1CC[C@H]2[C@@H]3CC[C@H]4C[C@](C)(O)CC[C@]4(C)[C@H]3CC[C@]12C | no
COc1ccc(C(=O)c2c(C)n(CCN3CCOCC3)c3ccccc23)cc1 | no
CNC(=O)N1N=C(c2ccc(N)cc2)c2cc3c(cc2CC1C)OCO3 (stereo not given) | no
C[C@]12CC[C@H]3[C@@H](CCC4=CC(=O)CC[C@@H]43)[C@@H]1CC[C@@H]2OC(=O)CCc1ccccc1 | no
CC(CCc1ccccc1)NC(C)C(O)c1ccc(O)cc1 (stereo not given) | no
CN(C)CCN(C)CCc1ccc(Cl)c(Cl)c1 | no
C=C1CC[C@@]2(O)[C@H]3Cc4ccc(O)c5c4[C@@]2(CCN3CC2CC2)[C@H]1O5 | no
Clc1cccc(N2CCNCC2)c1 | no
CNC(=O)c1ccc(N2C(=S)N(c3ccc(C#N)c(C(F)(F)F)c3)C(=O)C23CCC3)cc1F | no
CC(C)NCC(O)c1ccccc1Cl (stereo not given) | no
CC(C)=CC1C(C(=O)OCc2cccc(Oc3ccccc3)c2)C1(C)C (stereo not given) | no
CC(=O)[C@H]1CC[C@H]2[C@@H]3CC[C@H]4C[C@H](O)CC[C@]4(C)[C@H]3C(=O)C[C@]12C | no
CCCC1CCCCN1 (stereo not given) | no
Clc1ccc(COC(Cn2ccnc2)c2ccc(Cl)cc2Cl)cc1 (stereo not given) | no
CCCN1CCC[C@@H]2Cc3[nH]ncc3C[C@H]21 | no
C=C1C[C@@H]2[C@H](CC[C@]3(C)C(=O)CC[C@@H]23)[C@@]2(C)C=CC(=O)C=C12 | no
CCCC(C)(COC(N)=O)COC(=O)NC(C)C (stereo not given) | no
N[C@@H]1C[C@H]1c1ccccc1 | no
CN1C(=S)CN=C(c2ccccc2)c2cc(Cl)ccc21 | no
NN=C(N)N | no
N[C@@H](Cc1ccc(N(CCCl)CCCl)cc1)C(=O)O | no
Cc1cccc(C)c1NC1=NCCCS1 | no
C[C@@H]1[C@@H](C(=O)C[C@H]2O[C@@H]3O[C@]4(C)CC[C@@H]5[C@H](C)CC[C@@H]([C@H]2C)[C@@]35OO4)O[C@@H]2O[C@]3(C)CC[C@H]4[C@H](C)CC[C@@H]1[C@@]24OO3 | no
Nc1ccncc1 | no
COC1(CS(=O)c2ccccc2)CCN(CCc2c[nH]c3ccc(F)cc23)CC1 (stereo not given) | yes
CCC1C(=O)OCC1Cc1cncn1C (stereo not given) | no
O=C1CC[C@@]2(O)[C@H]3Cc4ccc(O)c5c4[C@@]2(CCN3CC2CC2)[C@H]1O5 | no
CC(=O)Nc1cc([As](=O)(O)O)ccc1O | no
Oc1ccc(Cl)cc1Cc1ccccc1 | no
Cc1ccc(S(=O)(=O)N[C@@H](CCCCN)C(=O)CCl)cc1 | no
C#CCOC(C(=O)OCCN(C)C)(c1ccccc1)c1ccccc1 | no
Cc1ccc(-c2nc3ccc(C)cn3c2CC(=O)N(C)C)cc1 | no
O=c1[nH]c2ccccc2n1C1CCN(CCCC(c2ccc(F)cc2)c2ccc(F)cc2)CC1 | no
Fc1ccc(C(OCCN2CCN(CCCc3ccccc3)CC2)c2ccc(F)cc2)cc1 | no
N#CC(C#N)=Cc1ccc(O)c(O)c1 | no
CC(C)(C)NCC(O)c1cc(Cl)c(N)c(Cl)c1 (stereo not given) | no
CCC(COC(=O)c1cc(OC)c(OC)c(OC)c1)(c1ccccc1)N(C)C (stereo not given) | no
C#CCN(C)[C@H](C)Cc1ccccc1 | no
NCC1(CC(=O)O)CCCCC1 | no
Cn1cc(C2=C(c3cn(C4CCN(Cc5ccccn5)CC4)c4ccccc34)C(=O)NC2=O)c2ccccc21 | no
O=C(O)c1ccc2[nH]cc(CCCCN3CC=C(c4ccccc4)CC3)c2c1 | no
C[C@]12C/C(=C/O)C(=O)C[C@@H]1CC[C@@H]1[C@@H]2CC[C@@]2(C)[C@H]1CC[C@]2(C)O | no

###

ASSAY OVERVIEW: Cell Viability - LYMP2-006 (AID 978);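 note: cells exposed to compound for 24 hours; nearly all actives have a fitted effect of over 60% in size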
SETUP CONDITIONS: LYMP2-006 lymphoblastoid cell viability, qHTS; series mostly up to 92.2 µM
Results filed as inconclusive are left out. Activity calls are given as the source filed them. Calls come from the whole dose curve; as a rule, active = well fitted cell-killing curve with a large enough effect; inconclusive = small, poorly fitted or top-dose-only effect; inactive = flat fitted curve, though single readings scatter.
Classes used: Y for active, N for inactive

COMPOUND | CLASS ASSIGNMENT
CC(COc1ccccc1)N(CCCl)Cc1ccccc1 (centres undefined) | Y
CCCC(C)(COC(N)=O)COC(=O)NC(C)C (centres undefined) | N
Oc1ccccc1-c1ccccc1 | N
CCOP(=S)(OCC)Oc1cc(C)nc(C(C)C)n1 | N
NCC(O)c1ccc(O)cc1 (centres undefined) | N
N[C@@H](Cc1ccc(N(CCCl)CCCl)cc1)C(=O)O | Y
OCCOc1ccccc1 | N
Oc1ccc(Cl)cc1Cc1ccccc1 | N
c1ccc2c(c1)Nc1ccccc1S2 | N

###

ASSAY OVERVIEW: qHTS for differential inhibitors of proliferation of Plasmodium falciparum line W2 (AID 1883);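 note: parasites grown with compound for 72 h before lysis and staining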
SETUP CONDITIONS: Plasmodium falciparum W2 proliferation inhibition; series mostly up to 28.7 µM
Results filed as inconclusive are left out. Active and inactive are the calls of the source. Calls come from the whole dose curve; as a rule, active = well fitted curve in the direction sought with a large enough effect; inconclusive = small, poorly fitted or top-dose-only effect, or another doubt; inactive = no such curve, though single readings can be large or run the other way.
Labels: active, inactive

MOLECULE | CLASS ASSIGNMENT
OCCN1CCN(CCCN2c3ccccc3Sc3ccc(C(F)(F)F)cc32)CC1 | active
CN1C[C@H](CNC(=O)OCc2ccccc2)C[C@@H]2c3cccc4c3c(cn4C)C[C@H]21 | active
COc1cc2c(c(OC)c1OC)-c1ccc(OC)c(=O)cc1[C@@H](NC(C)=O)CC2 | active
O=c1[nH]c2ccccc2n1C1CCN(CCCC(c2ccc(F)cc2)c2ccc(F)cc2)CC1 | active
c1ccc2c(c1)OCC(C1=NCCN1)O2 (stereo not drawn) | active
O=c1[nH]cc(F)c(=O)[nH]1 | active
NN=C(N)N | inactive
Clc1cccc(N2CCNCC2)c1 | active

###

ASSAY OVERVIEW: Drug repurposing screens with cells derived from glioblastoma tumor samples (AID 1345199); note: % is set by controls: 0 for no effect and ±100 for the full control effect; nearly all actives have a fitted effect of over 40% in size
SETUP CONDITIONS: GBM patient neurospheres viability, ATP luminescence, 48 h; at 45.9 µM (top of the series); tumour line D
Procedure: CD133+ cells were isolated from GBM patient biopsies and cultured as neurospheres. Neurospheres from four patients were used to screen the NCATS pharmaceutical collection (NPC) library of approved drugs and bioactive compounds. […] The neurospheres were incubated with drugs for 48 hours in 1536-well format, then assayed with an ATP content cell viability assay. […]
Results filed as inconclusive are left out. Calls of active or inactive are those of the source. Calls follow the shape of the dose curve; as a rule, active = well fitted inhibition curve with a large enough effect; inconclusive = small, poorly fitted or top-dose-only effect; inactive = flat fitted curve, though single readings scatter.
RECORDED METRIC: activity, negative = cell killing

COMPOUND | RECORDED METRIC | REPORTED VALUE
CC(=O)[C@H]1CC[C@H]2[C@@H]3CC[C@H]4C[C@H](O)CC[C@]4(C)[C@H]3C(=O)C[C@]12C | activity, negative = cell killing | -5.23% (inactive)
CC[N+]1(C)CCCC(OC(=O)C(O)(c2ccccc2)c2ccccc2)C1 (stereo unspecified) | activity, negative = cell killing | -8.99% (inactive)
CC(C)CC(N(C)C)C1(c2ccc(Cl)cc2)CCC1 (stereo unspecified) | activity, negative = cell killing | -16.7% (inactive)
COc1ccc(C(=O)c2c(C)n(CCN3CCOCC3)c3ccccc23)cc1 | activity, negative = cell killing | -16% (inactive)
C#CCOC(C(=O)OCCN(C)C)(c1ccccc1)c1ccccc1 | activity, negative = cell killing | 1.28% (inactive)
CC(C)NCC(O)c1ccccc1Cl (stereo unspecified) | activity, negative = cell killing | -18.1% (inactive)

###

ASSAY OVERVIEW: NFAT Signaling Pathway (AID 444);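 note: carbachol stimulus at about its EC50 of 1 µM final; % is set by controls: 0 for no effect and ±100 for the full control effect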
SETUP CONDITIONS: Jurkat NFAT-bla M1, carbachol, beta-lactamase ratio, 5 h; at 17.2 µM (top of the series)
Protocol: NCGC Assay Overview: The nuclear factor of activated T cells (NFAT) family of transcription factors has been found primarily in most immune system cells and some other non-immune cells. NFAT plays the immunomodulatory role, primarily in T-cell activation and differentiation. […] NCGC Assay Protocol Summary: The cells were prepared in RPMI 1640 medium containing 0.1% dialyzed FBS and 25 mM HEPES at 1.6 x 10^6cell/ml. […] The %Activity was determined from the ratio of 460nm/530nm. […]
Inconclusive results are not listed.
Entries and their measured activity change, negative = inhibition follow.

COMPOUND | OUTPUT UNIT | activity change, negative = inhibition
CCCC(C)(COC(N)=O)COC(=O)NC(C)C (stereo unspecified) | % | -6.68
COc1ccc(Cc2nccc3cc(OC)c(OC)cc23)cc1OC | % | -29.4
O=[N+]([O-])c1cc([As](=O)(O)O)ccc1O | % | -8.47
CCCN1CCC[C@@H]2Cc3[nH]ncc3C[C@H]21 | % | 24.4
C=C1CC[C@@]2(O)[C@H]3Cc4ccc(O)c5c4[C@@]2(CCN3CC2CC2)[C@H]1O5 | % | -9.27
CN1C[C@H](CNC(=O)OCc2ccccc2)C[C@@H]2c3cccc4c3c(cn4C)C[C@H]21 | % | 11.1
